Target desc: hGIPR (Homo sapiens, UniProt P48546)
Sequence (P48546 22-466): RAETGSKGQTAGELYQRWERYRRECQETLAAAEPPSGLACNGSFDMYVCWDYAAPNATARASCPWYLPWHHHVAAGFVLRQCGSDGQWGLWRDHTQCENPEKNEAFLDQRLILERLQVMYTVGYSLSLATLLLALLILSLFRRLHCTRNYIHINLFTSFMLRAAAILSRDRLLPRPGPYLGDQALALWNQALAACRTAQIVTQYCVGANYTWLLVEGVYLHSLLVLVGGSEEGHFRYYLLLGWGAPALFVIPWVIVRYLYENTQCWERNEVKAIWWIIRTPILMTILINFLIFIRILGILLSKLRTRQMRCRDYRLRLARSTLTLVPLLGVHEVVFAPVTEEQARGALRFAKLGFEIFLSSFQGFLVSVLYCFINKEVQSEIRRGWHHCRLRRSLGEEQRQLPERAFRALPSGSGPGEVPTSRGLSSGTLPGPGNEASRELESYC
Test details: Functional cAMP activation in the presence of 0.1% casein (no HSA);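 further: intracellular cAMP rise after 30 min at 37 °C read by HTRF against a standard curve, scaled between buffer alone (0%) and top control ligand concentration (100%), four-parameter fit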
Type: cell-based
Test context: in the presence of 0.1% casein (no HSA); geometric mean; read-out: Relative cAMP EC50, hGIPR
pEC50: −log10 of the molar value. Starred links: 1 amine or outer side, 2 acyl side, 3 side chain; linkers in the order of their positions; H or OH if unused. Non-standard residues stand in square brackets, D forms with d. Groups on a side chain read outwards from the residue. No end group written: not given here. *: point of attachment. C20 diacid = O=C(O)CCCCCCCCCCCCCCCCCCC(=O)*; C18 diacid = O=C(O)CCCCCCCCCCCCCCCCC(=O)*; αMePhe(2-F) = C[C@](N)(Cc1ccccc1F)C(=O)O; γGlu = O=C(O)[C@H](CCC(=O)[*:2])N[*:1]; αMe4Pal = C[C@](N)(Cc1ccncc1)C(=O)O; 4Pal = N[C@@H](Cc1ccncc1)C(=O)O; αMeL = CC(C)C[C@](C)(N)C(=O)O; Orn = NCCC[C@H](N)C(=O)O; AEEA = NCCOCCOCC(=O)O; Aib = CC(C)(N)C(=O)O
Listed substances paired with reported pEC50
Value type: pEC50

>>> observed_value("H-Y[Aib]QGTFTSD[4Pal]S[Orn][αMeL]LDKK([γGlu-γGlu-C18 diacid])AQ[αMe4Pal]AFIEYLIAGGPSSGEPPPSGTE-NH2 [Example 980]")
9.74
>>> observed_value("H-Y[Aib]QGTFTSD[4Pal]SQ[αMeL]LDKK([AEEA-γGlu-C18 diacid])AQ[αMe4Pal]AFIEYLIE[Aib]GPSSGAPPPSGSEE-NH2 [Example 897]")
9.80
>>> observed_value("H-Y[Aib]QGTFTSDFS[Orn][αMeL]LDKK([AEEA-γGlu-C18 diacid])AQ[Aib]AFIEYLLE[Aib]G[4Pal]SSGAPPPSGE-NH2 [Example 248]")
10.06
>>> observed_value("H-Y[Aib]QGTFTSDFS[Orn][αMeL]LDKK([AEEA-γGlu-C18 diacid])AQ[Aib]AFIEWLLEGGPSSGAPPPTGS-NH2 [Example 250]")
9.81
>>> observed_value("H-Y[Aib]QGTFTSDFS[Orn][αMeL]LDKK([AEEA-γGlu-C18 diacid])AQ[Aib]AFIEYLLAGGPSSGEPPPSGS-NH2 [Example 94]")
9.81
>>> observed_value("Y[Aib]QGT[αMePhe(2-F)]TSDYSILLDKQAAK([AEEA-γGlu-C20 diacid])EFIEYLIEGGPSSGAPPPSEG-NH2 [Example 340]")
9.72
